experimentNotes: inhibition of endothelial tube formation, primary screen, imaging, VEGF stimulated, CD31 staining, tube area, NPC library (AID 1117340)
runParameters: VEGF-stimulated ADSC/ECFC co-culture, at 10 µM
The source made the active and inactive calls.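 Rule for the calls: active = compound that reduces growth-factor-driven endothelial tube area in a mixed cell culture, no cutoff stated; inactive = the rest.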
# output must be one of 1 for active, -1 for inactive

| compound | categoryLabel |
| --- | --- |
| Clc1ccc2c(c1)Nc1ccccc1S2 | -1 |
| CC(=O)Oc1ccc(C2(c3ccc(OC(C)=O)cc3)Oc3ccccc3NC2=O)cc1 | 1 |
| OC1(c2ccccc2)CCNCC1 | -1 |
| CC(C)(C)c1nnc(NS(=O)(=O)c2ccccc2)s1 | -1 |
| CC1Cc2ccccc2N1NC(=O)c1ccc(Cl)c(S(N)(=O)=O)c1 (configuration not stated) | -1 |
| O=P(O)(O)C(Sc1ccc(Cl)cc1)P(=O)(O)O | -1 |
| C[C@H](CCC(=O)O)[C@H]1CC[C@H]2[C@@H]3CC[C@@H]4C[C@H](O)CC[C@]4(C)[C@@H]3C[C@H](O)[C@]12C | -1 |
| CN1CCC[C@@H]1c1cccnc1 | -1 |

Q) What did the test return for CCCCNC(=O)NS(=O)(=O)c1ccc(N)cc1 ?
A) -1

Q) Now the compound Cc1cccc(C)c1NC(=O)CN(CC(=O)O)CC(=O)O
A) -1

Q) Item: C[C@]12C=CC(=O)C=C1[C@@H](F)C[C@@H]1[C@@H]2[C@@H](O)C[C@@]2(C)[C@H]1CC[C@]2(O)C(=O)CO
A) -1

Q) # repeat for NC(=O)C(=O)N/N=C/c1ccc([N+](=O)[O-])o1
A) -1

----------
assayedTarget: Single-stranded DNA-binding protein (Escherichia coli (strain K12))
experimentNotes: E. coli SSB displacement from DNA, counter-screen for HCV NS3 helicase inhibitor project, biochemical, fluorescence polarization, NIH Clinical Collection (AID 743271)
runParameters: stronger effect = higher value, concentration not given here
Activity calls are given as the source filed them. Cut-off read from the data, not from the text of the source: active = inhibition above about 28%; inactive = the rest.
measuredEndpoint: inhibition

| molecule | assayedTarget | inhibition |
| --- | --- | --- |
| Cc1ccc(S(=O)(=O)NC(=O)NN2CCCCCC2)cc1 | Single-stranded DNA-binding protein (Escherichia coli (strain K12)) | -2.76% (inactive) |
| Clc1cccc(Cl)c1NC1=NCCN1 | Single-stranded DNA-binding protein (Escherichia coli (strain K12)) | -2.41% (inactive) |

Q) Quick one: inhibition of CN1CCN(CCCN2c3ccccc3Sc3ccc(C(F)(F)F)cc32)CC1 ?
A) 1.44% (inactive)

----------
experimentNotes: glucagon-like peptide 1 release enhancers, primary assay, NCI-H716 cell line, NPC library (AID 1117341)
runParameters: NCI-H716 cells, at 10 µM, stronger effect = higher value
measuredEndpoint: GLP1 secretion stimulation (%)
Just the number in %, nothing appended.

Q) Report GLP1 secretion stimulation for NNC(=O)c1ccncc1 please.
A) 0.3

Q) One more compound: CCCCCCCCCCCCCCCC[n+]1ccccc1
A) 72.8

Q) # iterate: O=C1CCCc2c(O)cccc21
A) 2.2

----------
This section presents compounds with their documented nuclear beta-catenin stimulation values.
experimentNotes: stimulators of nuclear beta-catenin in C2C12, primary screen, imaging, WNT3A-conditioned medium, mouse C2C12, NPC library (AID 1117326)
runParameters: at 10 µM, stronger effect = higher value
Positions of bridges follow the written chain, without caps; N, C: chain ends. Non-standard residues stand in square brackets, D forms with d. Residues, ends and D or L forms follow the SMILES beside them. hArg = N=C(N)NCCCC[C@H](N)C(=O)O; Mpa = O=C(O)CCS
Respond with the bare value in %.

| compound | nuclear beta-catenin stimulation (%) |
| --- | --- |
| Cc1cccc(C)c1NC(=O)CN1CCCC1 | -0.4 |
| NC(=O)[C@@H]1CSSCCC(=O)N[C@@H](CCCCN=C(N)N)C(=O)NCC(=O)N[C@@H](CC(=O)O)C(=O)N[C@@H](Cc2c[nH]c3ccccc23)C(=O)N2CCC[C@H]2C(=O)N1 ([Mpa][hArg]GDWPC-NH2; disulfide 1-7) | 3.6 |
| O=C1NC(c2ccccc2)(c2ccccc2)C(=O)N1COP(=O)(O)O | 1.6 |
| CCN(CC)CCSC(=O)C(c1ccccc1)c1ccccc1 | 7.2 |
| CC(CCc1ccc2c(c1)OCO2)NN (centres undefined) | 0.2 |
| O=C(CO)[C@@H](O)[C@H](O)[C@@H](O)C(=O)O | -2.6 |

Q) GET /values?readout=nuclear beta-catenin stimulation&item= CCOc1c(N2CCOCC2)cnn(C)c1=O
A) -0.3

Q) What do we get for Cc1ncc(C[n+]2csc(CCOP(=O)(O)O)c2C)c(N)n1 ?
A) 0.8

----------
experimentNotes: suppressors of polyQ aggregation in yeast, 75Q-TubU reporter (AID 1593)
runParameters: Yeast 75Q polyglutamine aggregation reporter
measuredEndpoint: score

Illustrative cases are given below, each with its answer.
| compound | result |
| --- | --- |
| N=C(N)c1ccc(OCCCCCOc2ccc(C(=N)N)cc2)cc1 | 0.69 |
| CC(C)NCC(O)c1cc(O)cc(O)c1 (stereo unspecified) | 1.21 |
| COC(=O)Nc1nc2ccc(C(=O)c3ccccc3)cc2[nH]1 | 0.63 |
| O=C(O)c1cc(=O)c2c(OCC(O)COc3cccc4oc(C(=O)O)cc(=O)c34)cccc2o1 | 1.69 |
| COc1cc2nc(N3CCN(C(=O)c4ccco4)CC3)nc(N)c2cc1OC | 1.21 |

# evaluate next
Q) Record request: score value, item COc1ccc2cc(CCC(C)=O)ccc2c1
A) 0.11

----------
experimentNotes: antimalarial activity against Dd2 strain (AID 2302);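 note: 0% = DMSO untreated growth and 100% = chloroquine plus artemisinin killed control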
runParameters: P. falciparum Dd2 in RBCs, LDH growth readout, 72 h; at 2 µM
Activity calls are given as the source filed them.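 The calls were made as follows: active = growth inhibition above 50% at the single 2 µM test dose, taken to imply half-maximal potency below 2 µM; inactive = the rest.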
Can you answer with just one of these options? YES (active), NO (inactive)

Below, 4 compounds whose answers are already recorded.
| compound | categoryLabel |
| --- | --- |
| Nc1ncnc2occ(-c3ccc(NC(=O)Nc4cc(C(F)(F)F)ccc4F)cc3)c12 | YES |
| Cc1ccc(O)cc1Nc1ccnc2cc(-c3ccccn3)ccc12 | YES |
| CCN(CCO)CCCC(C)Nc1ccnc2cc(Cl)ccc12 (stereo not given) | NO |
| c1ccc([C@H]2CN3CCSC3=N2)cc1 | NO |

# ---- query compound ----
Q) Kindly provide the recorded test outcome for the following compound: c1ccc(CC2=NCCN2)cc1
A) NO

----------
experimentNotes: Cy5 fluorescence interference with SSB-bound oligo, artefact control for HCV NS3 helicase inhibitor project, biochemical, NIH Clinical Collection, E. coli SSB (AID 743268)
measuredEndpoint: fluorescence ratio
Give the value as a plain number.

Consider the reported fluorescence ratio for these compounds:
| compound | fluorescence ratio |
| --- | --- |
| CC(C)NCC(O)c1ccc(O)c(O)c1 (stereo unspecified) | 1.01 |
| CC12CC3CC(C)(C1)CC(N)(C3)C2 | 1.02 |
| c1ccc2c(CC3=NCCN3)cccc2c1 | 1.03 |
| CC1COc2c(N3CCN(C)CC3)c(F)cc3c(=O)c(C(=O)O)cn1c23 (stereo unspecified) | 0.99 |
| CC1(C)O[C@@H]2C[C@H]3[C@@H]4CCC5=CC(=O)C=C[C@]5(C)[C@@]4(F)[C@@H](O)C[C@]3(C)[C@]2(C(=O)CO)O1 | 0.99 |
| Cc1ccc(Cl)c(Nc2ccccc2C(=O)O)c1Cl | 0.6 |
| Nc1c2c(nc3ccccc13)CCCC2 | 0.95 |
| COc1c(N2CCNC(C)C2)c(F)cc2c(=O)c(C(=O)O)cn(C3CC3)c12 (stereo unspecified) | 1.05 |
| NC(N)=NC(=O)c1nc(Cl)c(N)nc1N | 0.95 |
| CC(C)NCC(O)c1cc(O)cc(O)c1 (stereo unspecified) | 1.05 |

Q) Entry Cc1cccc(Nc2ccccc2C(=O)O)c1C has what fluorescence ratio?
A) 1

Q) Follow-up entry: O=C1NC(=O)C(c2ccccc2)(c2ccccc2)N1
A) 1.01

Q) Request: O=S(=O)(O)CCS
A) 0.73

Q) Check CCc1nc(N)nc(N)c1-c1ccc(Cl)cc1 too.
A) 0.95

Q) Param item: CCC(=O)O[C@]1(C(=O)CCl)[C@@H](C)C[C@H]2[C@@H]3CCC4=CC(=O)C=C[C@]4(C)[C@@]3(F)[C@@H](O)C[C@@]21C
A) 1.01

Q) Next up: c1ccc2c(c1)CCCC2C1=NCCN1 (stereo unspecified)
A) 0.97

----------
experimentNotes: survival rescue of mitochondrial mutant cells in low glucose, primary screen, MELAS cybrids, Rieske KO mouse fibroblasts, CellTiter-Glo (AID 1508586);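 note: z relative to plate mean and SD of compound and empty wells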
runParameters: Rieske KO mouse fibroblast survival, CellTiter-Glo 72 h
Rule for this label: y means z-score is less than -0.2; n means z-score is at least -0.2.

| compound | categoryLabel |
| --- | --- |
| Cc1cc(O)cc(C)c1/C=C/c1cncc(-c2nn[nH]n2)c1 | y |
| Fc1ccc(-c2ncn(C3CCNCC3)c2-c2ccnc(Oc3ccc4c(c3)OCO4)n2)cc1 | y |
| CNC(=O)c1cccc(C#Cc2cncnc2Nc2ccc(OCc3cccc(F)c3)c(Cl)c2)c1 | y |
| COc1cccc(-n2ncc3c(N/N=C/c4ccncc4)ncnc32)c1 | n |
| CS(=O)(=O)CCNCc1nc(-c2ccc3ncnc(Nc4ccc(OCc5cccc(C(F)(F)F)c5)cc4)c3c2)cs1 | y |

Q) Given the entry Nc1ccc(C#Cc2cncnc2Nc2ccc(OCc3cccc(F)c3)c(Cl)c2)cc1 , would its reported z-score be below -0.2?
A) n

Q) Follow-up entry: Nc1nccc(-c2c(-c3ccc(F)cc3)ncn2C2CCC(O)CC2)n1 (stereo not given)
A) y

Q) Do the same for CC1=C(C(=O)Nc2ccc3[nH]ncc3c2)C(c2ccc(F)cc2)NC(=O)N1 (stereo not given) please
A) y

Q) Query NS(=O)(=O)c1cc2c(cc1C(F)(F)F)NCNS2(=O)=O next
A) n

Q) And what about the compound Fc1ccc(Oc2nccc(-c3c(-c4ccc(F)cc4)ncn3C3CCNCC3)n2)cc1 ?
A) y
